# Tested on: TTK;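 also: KINOMEscan kinase panel screen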
# measurement-context: concentration: 1 μM,replicates: in singlicate; n = 1
Reported values of %Inh for individual entries
measurement-label: %Inh (%)

1) CNC(=O)c1ccccc1Nc1nc(Nc2cccc(CS(C)(=O)=O)c2)ncc1C.O=CO [GSK1520489]    93.8
2) CS(=O)(=O)c1cccc(CNc2nc(Nc3ccc4c(c3)[C@@H]3C[C@@H]4CNC3=O)ncc2C(F)(F)F)c1    99.8
3) Cc1nnc(-c2ccc3occ(-c4ccc(S(C)=O)cc4)c3n2)o1 (stereo not shown)    8
4) O=c1[nH]cc(-c2ccc(O)cc2)c2sc(-c3ccncc3)cc12 [GSK1033723]    11
